Data provenance is patent US20240299562A1.

Tested on: HCT-116 cells
Experiment: WST-1 cell viability, HCT-116 colorectal cancer cells
Type: cell-based
Conditions: Homo sapiens; HCT-116 (CrC); 72 hrs, WST-1 (Table 1); read-out: Absolute IC50
Readout type: IC50 (nM)
Answers are plain numbers, in nM.

Task: Notebook entry, HCT-116 cells assay: IC50 of COc1cccc2c1C(=O)c1c(O)c3c(c(O)c1C2=O)C[C@@](O)(C(=O)CO)C[C@@H]3O[C@H]1C[C@H](N)[C@H](O)[C@H](C)O1 [Doxorubicin, reference compound] = ?
Output: 120

====

Tested on: NCI-H292 cells
Assay: WST-1 cell viability, NCI-H292 lung cancer cells
Format: cell-based
Conditions: Homo sapiens; NCI-H292 (NSCLC); 72 hrs, WST-1 (Table 1); read-out: Absolute IC50
Readout type: IC50 (nM)
Numbers only, in nM.

Task: Report IC50 for COc1cccc2c1C(=O)c1c(O)c3c(c(O)c1C2=O)C[C@@](O)(C(=O)CO)C[C@@H]3O[C@H]1C[C@H](N)[C@H](O)[C@H](C)O1 [Doxorubicin, reference compound] please.
Output: 30
